# measurementTarget: T1, ESO157 homolog 5 peptide (…)/HLA-A*02:01 on T2 cells (human)
# T1 construct: also called ESO157 H5
# experimentNotes: FACS, phage on T2 cells, 50 ug/ml peptide;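 also: binding of phage clones to peptide/MHC complexes detected by flow cytometry after staining with an anti-M13 antibody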
Examples of binders with documented MFI follow.
measureName: MFI

[[record]]
binder = "phage clone 35-15, affinity maturation variant of clone #35 (scFv, V domains shown) VH: QVQLVQSGAEVKKPGSSVKVSCKASGDTFSSYYISWVRQAPGQGLEWMGRIIPILGIANYAQKYQGRVTLSADKSTSTSYMELNSLSSEDTAVYYCALDWSYSIDYWGQGTLVTVSS VL: QSVVTQPPSVSAAPGQKVTISCSGSSSNIGNNYVSWYQQLPGTAPKLLIYDNNKRPSGIPDRFSASKSGTSATLGITGLQTRDEADYYCGTWDSSLSAWVFGGGTKLTVLG"
experimentalresult = 31.8

[[record]]
binder = "phage clone 35-16, affinity maturation variant of clone #35 (scFv, V domains shown) VH: QVQLVQSGAEVKKPGSSVKVSCKASEDTFSSYYISWVRQAPGQGLEWMGRIIPTLGIANYAQKYQGRVTLSADKSTSTSYMELNSLRSEDTAVYYCARDWSYSIDYWGQGTLVTVSS VL: QSVVTQPPSVSAAPGQKVTISCSGSSSNIGNNYVSWYQQLPGTAPKLLIYDNNKRPSGIPGRFSGSKSGTSATLGITGLQTGDEADYYCGTWDSSLSAWVFGGGTKLTVLG"
experimentalresult = 18.7

[[record]]
binder = "phage clone 35-8, affinity maturation variant of clone #35 (scFv, V domains shown) VH: QVPLVQSGAEVKKPGSSVKVSCKASGDTFSSYYISWVRQAPGQGLEWMGRIIPILGIANYAQKYQGRVTLSADKSTSTSYMELNNLRSEDTAVYYCARDWSYSIDYWGQGTLVTVSS VL: QSVVTQPPSVSAAPGQKVTISCSGSSSNIGNNYVSWYQQLPGTAPKLLIYDNNKRPSGIPDRFSGSKSGTSATLGITGLQTGDEADYYCGTWDSSLSAWVFGGGTKLTVL"
experimentalresult = 17.8

